- subject.of.test: Induced myeloid leukemia cell differentiation protein Mcl-1 (Homo sapiens, UniProt Q07820)
- Sequence (Q07820 whole entry): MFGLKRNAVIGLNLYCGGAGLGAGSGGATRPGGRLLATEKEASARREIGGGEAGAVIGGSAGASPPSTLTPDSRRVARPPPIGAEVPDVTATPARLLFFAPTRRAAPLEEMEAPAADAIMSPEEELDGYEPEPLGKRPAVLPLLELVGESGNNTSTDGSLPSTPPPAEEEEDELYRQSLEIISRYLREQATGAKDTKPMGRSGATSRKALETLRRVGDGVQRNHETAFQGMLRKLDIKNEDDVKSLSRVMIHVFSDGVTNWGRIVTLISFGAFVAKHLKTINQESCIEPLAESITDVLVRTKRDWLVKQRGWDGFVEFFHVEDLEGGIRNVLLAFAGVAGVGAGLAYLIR
pKi: −log10 of the molar value.
Please enter True where pKi is greater than or equal to 7, and False where it is lower.

Task: Form field: pKi at least 7? Entry: `Cc1cc(OCCCc2c3n(c4c(-c5c(C)nn(C)c5C)c(Cl)ccc24)[C@H](C)CN(Cc2ccc(C(=O)O)cc2)C3=O)cc(C)c1Cl`
Result: True

Task: Reported pKi reaches at least 7 for `Cc1cc(OCCCc2c3n(c4c(-c5c(C)nn(C)c5C)c(Cl)ccc24)CCN(Cc2cccc(C(=O)O)c2)C3=O)cc(C)c1Cl` ?
Result: True

Task: Does `Cc1cc(OCCCc2c3n(c4c(-c5c(C)nn(C)c5C)c(Cl)ccc24)CCN(Cc2ccc(C(=O)O)cc2)C3=O)cc(C)c1Cl` have a reported pKi of at least 7?
Result: True

Task: Does `Cc1cc(OCCCc2c3n(c4c(-c5c(C)nn(C)c5C)c(Cl)ccc24)[C@@H](C)CN(Cc2cccc(C(=O)O)c2)C3=O)cc(C)c1Cl` have a reported pKi of at least 7?
Result: False

Task: Could you verify whether the entry `Cc1cc(OCCCc2c3n(c4c(-c5c(C)nn(C)c5C)c(Cl)ccc24)CCNC3=O)cc(C)c1Cl` shows pKi of no less than 7?
Result: False
